Parameter log2 fold change of degron read counts: see the listing below.
target.desc: T1, CRBN, Q96SW2;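 also: pooled lentiviral library of zinc finger degron-EGFP fusions in mCherry-positive Jurkat cells, FACS-sorted after compound exposure, with degron abundance counted by next-generation sequencing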
T1 chain: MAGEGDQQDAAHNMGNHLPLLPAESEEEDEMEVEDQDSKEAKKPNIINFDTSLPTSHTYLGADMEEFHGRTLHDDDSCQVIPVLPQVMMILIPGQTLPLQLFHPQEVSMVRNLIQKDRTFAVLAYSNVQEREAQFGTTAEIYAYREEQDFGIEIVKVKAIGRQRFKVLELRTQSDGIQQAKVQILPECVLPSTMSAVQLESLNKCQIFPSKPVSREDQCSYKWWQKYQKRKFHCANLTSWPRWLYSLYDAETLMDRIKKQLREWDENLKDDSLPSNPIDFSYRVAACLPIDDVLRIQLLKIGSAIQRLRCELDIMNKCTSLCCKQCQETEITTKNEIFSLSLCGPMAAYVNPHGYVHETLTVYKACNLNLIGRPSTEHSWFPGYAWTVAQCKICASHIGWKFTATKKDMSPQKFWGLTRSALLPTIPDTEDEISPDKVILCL
experimental.details: log2 fold change of degron read counts, EGFP-low vs EGFP+ sorted cells (limma voom), compound-induced degradation; higher = more compound-induced degradation of the degron-EGFP fusion; degrons are variants of IKZF1/3 zinc finger 2; compound dose not given here
experimental.context: Jurkat; 18 h; compound: compound 22 (5-morpholino-thalidomide)
Whole data set: some 8,300 sequences, median “log2 fold change of degron read counts, EGFP-low vs EGFP+ sorted cells (limma voom), compound-induced degradation” near -1.1, cut for the highest 2% near 3.2. The full list was thinned out, with the highest values kept by preference.
Give the value as a plain number.

| residues | log2 fold change of degron read counts |
| --- | --- |
| LNCPICGFDCTQKGNLLRHIKL [46L_47N_49P_50I_52G_53F_54D_55C_67L_, Q9UKT9] | -1.67 |
| FMCEVCGAKFTQKGNLLRHIKL [46F_47M_49E_50V_52G_53A_54K_55F_67L_, Q9UKT9] | -0.168 |
| FECEVCGAKFTQKGNLLRHIKL [46F_47E_49E_50V_52G_53A_54K_55F_67L_, Q9UKT9] | -1.55 |
| FTCEVCGALFTQKGNLLRHIKL [46F_47T_49E_50V_52G_53A_54L_55F_67L_, Q9UKT9] | -0.862 |
| FECNVCGACFTQKGNLLRHIKL [46F_47E_49N_50V_52G_53A_54C_55F_67L_, Q9UKT9] | -2.3 |

Output measured log2 fold change of degron read counts for this item: FICEICGRFFTQKGNLLRHIKL [46F_47I_49E_50I_52G_53R_54F_55F_67L_, Q9UKT9]
-1.81

Output measured log2 fold change of degron read counts for this item: LACPICGFWCTQKGNLLRHIKL [46L_47A_49P_50I_52G_53F_54W_55C_67L_, Q9UKT9]
2.34

Output measured log2 fold change of degron read counts for this item: FTCDVCGADFTQKGNLLRHIKL [46F_47T_49D_50V_52G_53A_54D_55F_67L_, Q9UKT9]
-1.84

Output measured log2 fold change of degron read counts for this item: FNCEQCGAWFTQKGNLLRHIKL [46F_47N_49E_50Q_52G_53A_54W_55F_67L_, Q9UKT9]
-2.58

Output measured log2 fold change of degron read counts for this item: FDCEVCGAKFTQKGNLLRHIKL [46F_47D_49E_50V_52G_53A_54K_55F_67L_, Q9UKT9]
-0.744

Output measured log2 fold change of degron read counts for this item: FRCEVCGAKFTQKGNLLRHIKL [46F_47R_49E_50V_52G_53A_54K_55F_67L_, Q9UKT9]
-0.4

Output measured log2 fold change of degron read counts for this item: FGCEVCGAKFTQKGNLLRHIKL [46F_47G_49E_50V_52G_53A_54K_55F_67L_, Q9UKT9]
1.3

Output measured log2 fold change of degron read counts for this item: FACNICGAQFTQKGNLLRHIKL [46F_47A_49N_50I_52G_53A_54Q_55F_67L_, Q9UKT9]
1.62

Output measured log2 fold change of degron read counts for this item: FECNQCGAGFTQKGNLLRHIKL [46F_47E_49N_50Q_52G_53A_54G_55F_67L_, Q9UKT9]
-2.79

Output measured log2 fold change of degron read counts for this item: FLCEVCGAKFTQKGNLLRHIKL [46F_47L_49E_50V_52G_53A_54K_55F_67L_, Q9UKT9]
-1.55
